Give protein stability index for every item shown.
B1: DYRK1B (parent)
chain: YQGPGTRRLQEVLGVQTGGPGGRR

- Variants of: B1
- run description: protein stability index of a GFP-peptide fusion (GPS, HEK-293T) (PSI 1-6); higher = more stable;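 note: lentivirally expressed fusions sorted by FACS into six bins by GFP to DsRed ratio, PSI derived from sequencing read proportions per bin multiplied by bin number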
- experimental parameters: c terminus: a fixed tail appended
One number for each entry.

Reference set, count: 2
{"variant notation": "V12W", "protein stability index": 2.92}
{"variant notation": "R7D", "protein stability index": 3.7}

Look at each variant and report its protein stability index.
1. Y1T
2. G5E
3. G19A
4. P4F
5. Y1C
6. Q16E
7. Q16A

1. 4.72
2. 3.74
3. 3.34
4. 1.68
5. 4.48
6. 3.39
7. 2.81

For each of the items listed, what is its protein stability index?
1. P20N
2. G3V
3. E11N
4. L13N
5. V15T
6. G14F

[3.1, 2.38, 2.98, 3.85, 2.96, 2.66]
